# testSystem: AMP-activated protein kinase, AMPK (Homo sapiens) (UniProt P54646+O43741+P54619+Q9UGJ0+Q9Y478+Q13131+Q9UGI9)
# assayProcedure: AMP-dependent Kinase enzyme assay. An in vitro enzyme assay that detects ADP turnover that is directly proportional to AMPK activity. This uses naive AMPK that is activated during the assay with MK-8722
# Type: functional
# Parameters: scale not given: direction of the effect not stated beside the values
# conditionLabel: 30 µM
So I've got a bunch of molecules here, and I need their Percent Effect values.
Output spec: scalar in %, unitless text.

Answer with the recorded Percent Effect for the molecule listed here: COc1ccc(Cl)cc1C(=O)NCc1cnn(C)c1C
7.53

Consider the molecule COc1ccc(NCCC(=O)NCc2cccnc2N(C)C)cc1 and give its recorded Percent Effect.
22.9

Supply measured Percent Effect of CN1CCN(c2ccc(F)cc2NC(=O)NCc2ccon2)CC1 in your reply.
4.16

Indicate the recorded Percent Effect value for this molecule: N#Cc1ccc(CN(CCF)Cc2cccc(F)c2)cc1
-7.25

Please indicate Percent Effect recorded for CCc1ccccc1OCCN(C)C(=O)CCN1CCCO1
-7.88

Retrieve Percent Effect measured for CCCc1n[nH]c(=O)n1Cc1ccc(OC)cc1 and print it.
3.68

Answer with reported Percent Effect of Cc1nc(NC(=O)C(C)N(C)Cc2cccc(C#N)c2)sc1C (configuration not stated)
7.53

Quick one: give measured Percent Effect for O=C(Nc1ccc(I)cc1C(=O)NCCN1CCOCC1)c1ccco1
12.6

Provide one value: measured Percent Effect of Cc1ccsc1C(CNC(=O)c1cc(=O)c2ccccc2[nH]1)N(C)C (configuration not stated)
13.7

Respond only with Percent Effect recorded for Cc1cccc(N2CCN(C(=O)CNCCn3cc(C)cn3)CC2)c1
-4.92

Check the records and state Percent Effect for Cc1ccccc1Cn1cnc2oc(C)c(C(=O)O)c2c1=O
9.55

Given CS(=O)(=O)c1ccccc1N[C@@H]1c2ccccc2C[C@@H]1O , respond with its Percent Effect.
-13.1

###

# Species: Homo sapiens
# assayProcedure: To identify inhibition of the IFN signalling (Jak-Stat) pathway via expression of an eGFP reporter gene under the control of an IFN-stimulated response element (ISRE) containing MxA promoter.
# Assay type: functional
# Design: scale not given: direction of the effect not stated beside the values
# conditionLabel: 30 µM
assayReadout: Percent Effect (%)
I only need the number, in %, no unit after it.

Output Percent Effect of c1ccc(-c2nc(CN3CCc4c(ncn4C4CC4)C3)cs2)cc1
28.5

Check the records and state Percent Effect for Cc1ccc(-c2nc(CNCC3CN(C)CCO3)cs2)o1 (stereo unspecified)
20

Note Percent Effect for the compound shown: CN(C(=O)CN1CCOC(Cn2cccn2)C1)c1nccs1 (stereo unspecified)
-5.33

Report Percent Effect for CCS(=O)(=O)CCN1CCC(N(C)Cc2noc(C(C)C)n2)C1 (stereo unspecified)
10.2

Fill in reported Percent Effect for this entry: COc1ccc(OCCN(C)C(=O)NC(C)c2nncn2C)cc1 (stereo unspecified)
17.3

Tell me its Percent Effect given CN(Cc1ccccc1)CC(O)Cn1cnc2ccccc2c1=O (stereo unspecified) as the entry.
12.8

Give me measured Percent Effect, please, for this compound: O=C(O)c1cc(S(=O)(=O)N2CCOc3ccccc32)ccc1F
-4.8

Provide measured Percent Effect value, entry: O=C(Cc1n[nH]c2ccccc12)N1CCC(Nc2cccnn2)CC1
-4.05

Could you please provide reported Percent Effect for N#Cc1ccccc1C(=O)N1C[C@H](CO)C[C@H](CN2CCCC2)C1 ? Thanks!
-3.94

Respond only with Percent Effect recorded for Cc1ccc(CN2CCCn3c(nc(CN4CCCC4)cc3=O)C2)s1
-18.4

Give Percent Effect for the following compound: CC(C)(C)C(O)CN1CCN(C(=O)c2cccc3ncccc23)CC1 (stereo unspecified)
-0.457

Output measured Percent Effect for this item: CC(c1nc(C2CC2)no1)N1CCN(Cc2ccsc2)CC1 (stereo unspecified)
3.35

Give the measured Percent Effect for O=c1cc(Cn2cncn2)nc2n1CCCN(CC1CC1)C2
-6.93

In one line, give reported Percent Effect of the entry CCOc1ncccc1NC(=O)NC1CCCN(c2ncccn2)C1 (stereo unspecified) .
8.06

Give Percent Effect for Cc1cncc(C2CCCN(C(=O)c3c[nH]c(=O)[nH]c3=O)C2)n1 (stereo unspecified)
6.63

Look up and state reported Percent Effect for O=C(NCC1CC1)C1=NOC2(CCN(S(=O)(=O)c3cccs3)C2)C1 (stereo unspecified)
-1.32

In one line, give reported Percent Effect of the entry CC(C)N(Cc1cccc(F)c1)Cc1nc2c(cnn2C)c(=O)[nH]1 .
5.6

Read off the recorded Percent Effect for Cc1ncc(-c2ccnc(N3CCCCCC3)n2)c(-c2cccnc2)n1
21.1

Please list Percent Effect recorded for the compound CCNc1cc2c(nn1)CCN(C(=O)c1cc3nc(C)ccc3o1)C2
6.54

Determine from records and report Percent Effect for Cc1nn(C)c(N(C)C)c1CNCCNS(C)(=O)=O
-6.32

Provide measured Percent Effect value, entry: Cc1cnn(CC2CN(CC(=O)N(C)c3nccs3)CCO2)c1 (stereo unspecified)
13.5

Note Percent Effect for the compound shown: Cc1ccc(OCC(O)CN2CCC(Cn3cccn3)CC2)cc1 (stereo unspecified)
-3.3

Write down Percent Effect measured for item O=C(O)c1csc(S(=O)(=O)Nc2cccc(OC(F)F)c2)c1
2.87

Supply recorded Percent Effect for Cc1cccc(CN2C[C@@H]3COC[C@]3(CNC(=O)N3CCCC3)C2)n1 here.
1.04

Report measured Percent Effect; entry is CN(C)c1ccc(C(=O)N2CCN(Cc3cscn3)CC2)cc1F
-8.07

Complete the entry with Percent Effect for CN1CCC/C1=N\S(=O)(=O)c1ccc(NC(=O)CCc2cccs2)cc1
16.7

Quick one: give measured Percent Effect for COc1ccc(CN2CCC[C@@H]3CN(C(=O)c4ccco4)C[C@@H]32)cc1
3.21

Query Percent Effect for CC(C)C(=O)N1CCC2(CCCN(CCOc3ccccc3)C2)C1 (stereo unspecified)
7.35

// Input: Cc1cc(C)n(C2CCCN(C(=O)c3c(C)c(C)n[nH]c3=O)C2)n1 (stereo unspecified) . Output its Percent Effect only.
17.4

Give me measured Percent Effect, please, for this compound: O=C(NCc1cc(O)ncn1)C1COc2ccccc2C1 (stereo unspecified)
9.77

Give the reported Percent Effect for this compound. Cc1cc(C)n(CC2CCCCN2C(=O)c2ccc3c(c2)OCO3)n1 (stereo unspecified)
8.9

State its Percent Effect for this compound: CCN(CC)C(=O)C(c1ccccc1)N1CCn2c(C)nnc2C1 (stereo unspecified)
10.3

Specify reported Percent Effect for the compound shown: CC(C)NC(=O)C(c1ccccc1)N1CCn2c(nnc2C2CC2)C1 (stereo unspecified)
4.59

Give the reported Percent Effect for this compound. CCOc1ncccc1C(=O)N1CCCC(c2nccn2CCOC)C1 (stereo unspecified)
9.33

Provide only the value of recorded Percent Effect for CC1(C)OCC(CNC(=O)c2cnn(-c3ccc(Cl)cc3)c2N)O1 (stereo unspecified)
15.1

Return value of Percent Effect for input CC(NC(=O)CN(C)S(C)(=O)=O)c1nnc2n1CCCCC2 (stereo unspecified) , no commentary.
26.4

Please supply the value of reported Percent Effect for the item CCC(=O)N1CCC(O)(c2ncc(OC)nc2OC)CC1
8.31

Give me measured Percent Effect, please, for this compound: CCC(O)CN1CCN(C(=O)c2sccc2OC)CC1 (stereo unspecified)
16.7

Indicate the recorded Percent Effect value for this compound: Cc1noc(C2CCN(C(=O)c3ccc(N(C)C)nc3)CC2)n1
13.1

Indicate the recorded Percent Effect value for this compound: CN1CC(c2ccccc2)CC12CCN(C(=O)c1cncc(Cl)c1)CC2 (stereo unspecified)
12.2

Give the reported value of Percent Effect for this record: CN(Cc1nnc(C2CC2)o1)C1CCN(CCCc2cnn(C)c2)C1 (stereo unspecified)
18.5

Give me measured Percent Effect, please, for this compound: CN(C)CC(=O)N1CCC2(CC1)COC(COc1ccccn1)C2 (stereo unspecified)
-11.4

Supply recorded Percent Effect for CCc1nc(CC(=O)N2CCCC2Cn2cccn2)cs1 (stereo unspecified) here.
-17.2

Identify Percent Effect associated with the compound Cn1ccc(CN2CCC(NC(=O)NC3CCCCC3)CC2)cc1=O
27.9

Complete the entry with Percent Effect for NC(=O)NC(=O)CCN1CCCN(c2nccs2)CC1
13.6

Read off the recorded Percent Effect for Cc1noc(C(C)C)c1C(=O)NCCN1CCCCCC1=O
-6.97
